experiment: Wnt/beta-catenin pathway activators, primary screen, cell-based, plate reader, single point (AID 743398); details: Wnt/beta-catenin reporter cell assay, activator, at 9.35 µM, hits give high values;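 further: 0% = neutral control wells and 100% = positive control wells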
The campaign covered roughly 300,000 compounds. About 3,600 (1.2%) were called active. Many of the other results were omitted from the sample, so actives are more common in it than they were.
Reported Metric: activation (%)
Numbers only, in %.

Example cases with answers are listed next.
[[record]]
compound = "O=C(Nc1ncccc1O)c1ccc(C(=O)c2ccccc2)cc1"
reported_metric = "activation"
measured_value = 21.2

[[record]]
compound = "Cc1c(C(=O)Nc2ccccn2)oc2ccc(Br)cc12"
reported_metric = "activation"
measured_value = 34.7


Batch request: activation per item, same order as input.
1. COc1ccc(OC)c(-c2csc(-c3cccs3)n2)c1
2. OC(c1ccccc1)c1nc(-c2cnc3ccccc3c2)cs1 (stereo unspecified)
3. Cc1[nH]c2ccccc2c1/C=N\NC(=O)Cn1nnc(-c2ccccc2)n1

[A]
[3.92, 50.7, -3.53]

Reference for the values: PubChem BioAssay AID743398
